- Tested on: soluble epoxide hydrolase (sEH)
- protocolText: Baboon [^18F]FNDP dynamic PET, baseline scans with kinetic modelling (2TCM, 1TCM, Logan)
- Type: in vivo, baboon (Papio anubis)
- condition: male, baboon (Papio anubis), brain (occipital cortex), intravenous, Occipital cortex; baseline, mean ± SD of 3 baboons; read-out: Logan VT
- Procedure: PET images were acquired using a CPS/CTI high-resolution research tomograph (HRRT), which has an axial resolution (FWHM) of 2.4 mm and in-plane resolution of 2.4–2.8 mm. […] These blocking studies were performed 27 to 43 days apart from each other to ensure full animal recovery. The animals had no food for 12 h prior to each PET study. […] Physiological vital signs including heart rate, blood pressure, electrocardiogram, and oxygen saturation were monitored continuously throughout the study. […]
assayMetric: Kp
# respond with the number and nothing more

**Q:** Query: Kp; subject: O=C(NCCC(c1ccccc1)c1ccccc1)c1ccc([18F])nc1 [[^18F]FNDP]
**A:** 7.67

FYI, the data here is from paper PMC7310027.
